Source listed as ChEMBL document CHEMBL5370529.

- ASSAY_METHOD_TEXT: Cytotoxicity against human HEK293T cells assessed as reduction in cell viability measured after 48 hrs by MTT assay
- Type: toxicity, cell-based, HEK-293T
OUTCOME_MEASURE: CC50 at 48 h

Can you look up the measured CC50 at 48 h of CCC(/C(C)=C/c1cc(OC)c(OC)cc1OC)c1cc(OC)c(OC)cc1OC (stereo unspecified) for me?
> 80 µM

* * *

- ASSAY_METHOD_TEXT: Cytotoxicity against asian tiger mosquito C6/36 cells assessed as reduction in cell viability measured after 24 hrs by MTT assay
- Type: toxicity, cell-based
- RUN_PARAMETERS: aedes albopictus
Entries and their CC50 at 24 h
Answer in µg/mL, number only, no unit symbol.

Can you look up the measured CC50 at 24 h of C=C1CC[C@@H]2[C@]3(C)COC(C)(C)O[C@@H]3CC[C@@]2(C)[C@@H]1C/C=C1/C(=O)OC[C@@H]1Oc1c(Cl)cc(Cl)c2ccc(C)nc12 for me?
15.6

// repeat for C=C1CC[C@@H]2[C@](C)(CO)[C@H](O)CC[C@@]2(C)[C@@H]1C/C=C1/C(=O)OC[C@H]1O [ANDROGRAPHOLIDE] and report
15.6
